This collection of values is drawn from patent US20200216522A1.

- Target desc: T1, full-length human Tau (Tau441; 2N4R), recombinant (human, UniProt P10636 1-758)
- T1 construct: made in E. coli, His6-Smt3 tag removed; biotinylated through amines for Octet and phage work; also called r-Tau; recombinant Tau
- T1 sequence (P10636 other isoform, or with tags, fused parts or gaps limits assumed): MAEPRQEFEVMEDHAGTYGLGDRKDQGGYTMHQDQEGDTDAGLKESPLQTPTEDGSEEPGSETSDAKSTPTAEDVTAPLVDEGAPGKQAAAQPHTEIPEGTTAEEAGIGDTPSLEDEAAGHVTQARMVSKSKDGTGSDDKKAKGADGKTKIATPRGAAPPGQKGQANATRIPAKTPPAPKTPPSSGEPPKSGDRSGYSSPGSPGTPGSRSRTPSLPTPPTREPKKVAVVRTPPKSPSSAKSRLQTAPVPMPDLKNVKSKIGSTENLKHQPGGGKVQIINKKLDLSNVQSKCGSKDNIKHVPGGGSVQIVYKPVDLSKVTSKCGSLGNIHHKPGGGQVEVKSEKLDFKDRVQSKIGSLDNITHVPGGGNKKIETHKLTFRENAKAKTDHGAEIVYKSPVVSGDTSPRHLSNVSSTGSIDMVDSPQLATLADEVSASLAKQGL
- Method: SPR Biacore
Quantity name: koff (s⁻¹)
Kindly provide the numeric value in s⁻¹ only, without the unit symbol.

Entry under test: Clone with L1_3 (antibody, V domains shown, IgG based on hu1C7.v2) VH: EVQLLESGGGLVQPGGSLRLSCAASGFTFSSYGMSWVRQAPGKGLEWVASISGDGGSYIHYADSVKGRFTISRDNSKNTLYLQMNSLRAEDTAVYYCARLPYWGQGTLVTVSS VL: DIVMTQSPDSLAVSLGERATINCKSSQSLHRSGTQKDYLVWYQQKPGQPPKLLIYWASTRESGVPDRFSGSGSGTDFTLTISSLQAEDVAVYYCQQYNSYPLTFGQGTKVEIK . Its koff was 0.000286

Entry under test: Clone with L1_3 and H3_1 (antibody, V domains shown, IgG based on hu1C7.v2) VH: EVQLLESGGGLVQPGGSLRLSCAASGFTFSSYGMSWVRQAPGKGLEWVASISGDGGSYIHYADSVKGRFTISRDNSKNTLYLQMNSLRAEDTAVYYCAKLPFWGQGTLVTVSS VL: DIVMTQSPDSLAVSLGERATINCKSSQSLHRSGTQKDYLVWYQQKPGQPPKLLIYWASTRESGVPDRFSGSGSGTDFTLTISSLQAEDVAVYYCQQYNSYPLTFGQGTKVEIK . Its koff was 0.000145

Entry under test: Clone with L1_1 (antibody, V domains shown) VH: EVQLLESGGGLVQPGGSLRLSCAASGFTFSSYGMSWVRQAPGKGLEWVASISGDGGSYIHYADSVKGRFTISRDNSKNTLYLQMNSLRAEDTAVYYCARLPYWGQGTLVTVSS VL: DIVMTQSPDSLAVSLGERATINCKSSHSLYSSRRHKHYLAWYQQKPGQPPKLLIYWASTRESGVPDRFSGSGSGTDFTLTISSLQAEDVAVYYCQQYNSYPLTFGQGTKVEIKR . Its koff was 0.000297
